- System: SNB-75 CNS
- METHOD_SUMMARY: NCI-60 one-dose screen, 48 h (100 = growth as untreated, 0 = no growth, -100 = all killed)
- CONDITION_CONTEXT: 10 µM unless noted
This is part of a sample that, as a whole, favours compounds with a hit. Of some 83,000 tested, about 20% had one in any assay.
Friendly reminder: growth below 80% is TRUE, at or above is FALSE.

q: Dear reviewer, please state whether `CSc1nccc(-c2c(-c3ccc(F)c(OCc4ccc(F)cc4)c3)nc3sccn23)n1` has growth strictly beneath 80%.
a: FALSE

q: Dear reviewer, please state whether `COc1cc(/C=N/Nc2ccnc3cc(Cl)ccc23)cc(OC)c1O` has growth strictly beneath 80%.
a: TRUE
